These data points were gathered from patent US20250115620A1.

system: pLAI reporter virus; assay: microbe, parasite or virus in culture; format: cell-based, HIV; conditions: Human immunodeficiency virus 1, MT4, 72 h, read-out: RLUC CCM EC50
MEASURE: EC50
Report field: quantity (unit follows the number).

Memo: CC1=NO[C@@]2(CC[C@H](C)N3C[C@H]2n2cc(C(=O)NCc4ccc(F)cc4F)c(=O)c(O)c2C3=O)N1C [Example 149a] , reported EC50: 800 pM

Note to self: EC50 recorded for COC1=NO[C@@]2(CC[C@H](C)N3C[C@H]2n2cc(C(=O)NCc4ccc(F)c(Cl)c4F)c(=O)c(O)c2C3=O)C1 was 300 pM

get_value(item= C[C@H]1CC[C@]2(CC(CC(F)(F)F)=NO2)[C@H]2CN1C(=O)c1c(O)c(=O)c(C(=O)NCc3c(F)cc(F)cc3F)cn12 , readout=EC50) returns 500 pM

Entry CC1=NO[C@@]2(CC[C@H](CF)N3C[C@H]2n2cc(C(=O)NCc4c(F)cc(F)cc4F)c(=O)c(O)c2C3=O)C1 , EC50 reported as 300 pM

The measured EC50 associated with COC1=NO[C@@]2(CCCN3C[C@H]2n2cc(C(=O)NCc4c(F)cc(F)cc4F)c(=O)c(O)c2C3=O)C1 reads 200 pM

For this molecule ( C[C@H]1CC[C@]2(CC(CCCCCl)=NO2)[C@H]2CN1C(=O)c1c(O)c(=O)c(C(=O)NCc3c(F)cc(F)cc3F)cn12 ), measured EC50 is 1000 pM

====

assay: in vitro; conditions: human, uninfected MT-4 cells
Threshold 10 µM. CC50 at 5 days below it: condition met. CC50 at 5 days at it or above: condition not met.

### Prompt Does CSC1=NO[C@@]2(CC[C@H](C)N3C[C@H]2n2cc(C(=O)NCc4c(F)cc(F)cc4F)c(=O)c(O)c2C3=O)C1 have CC50 at 5 days strictly under 10 µM?
### Response condition not met

### Prompt Confirm or reject: CC50 at 5 days of [2H]C([2H])([2H])OC1=NO[C@@]2(CC[C@H](C)N3C[C@H]2n2cc(C(=O)NCc4c(F)cc(F)cc4F)c(=O)c(O)c2C3=O)C1([2H])[2H] lies strictly below 10 µM
### Response condition not met

### Prompt Problem: For the compound C[C@H]1CC[C@]2(CO2)[C@H]2CN1C(=O)c1c(O)c(=O)c(C(=O)NCc3c(F)cc(F)cc3F)cn12 , is CC50 at 5 days under 10 µM?
### Response condition met

### Prompt Bench note: check whether C[C@H]1CC[C@]2(CC(N3CCC3)=NO2)[C@H]2CN1C(=O)c1c(O)c(=O)c(C(=O)NCc3c(F)cc(F)cc3F)cn12 shows CC50 at 5 days below 10 µM
### Response condition not met

### Prompt In plain terms, does COC1=NO[C@@]2(CC[C@H](C)N3C[C@H]2n2cc(C(=O)NCc4c(F)cc(F)cc4F)c(=O)c(O)c2C3=O)[C@H]1F come in under 10 µM for CC50 at 5 days?
### Response condition not met

### Prompt Here's an entry: COC[C@H]1CO[C@]2(CC[C@H](C)N3C[C@H]2n2cc(C(=O)NCc4c(F)cc(F)cc4F)c(=O)c(O)c2C3=O)O1 . Is its CC50 at 5 days below 10 µM?
### Response condition not met
